Taken from ChEMBL document CHEMBL4476874.

- SYSTEM: Myc proto-oncogene protein (Homo sapiens)
- Sequence (P01106 whole entry): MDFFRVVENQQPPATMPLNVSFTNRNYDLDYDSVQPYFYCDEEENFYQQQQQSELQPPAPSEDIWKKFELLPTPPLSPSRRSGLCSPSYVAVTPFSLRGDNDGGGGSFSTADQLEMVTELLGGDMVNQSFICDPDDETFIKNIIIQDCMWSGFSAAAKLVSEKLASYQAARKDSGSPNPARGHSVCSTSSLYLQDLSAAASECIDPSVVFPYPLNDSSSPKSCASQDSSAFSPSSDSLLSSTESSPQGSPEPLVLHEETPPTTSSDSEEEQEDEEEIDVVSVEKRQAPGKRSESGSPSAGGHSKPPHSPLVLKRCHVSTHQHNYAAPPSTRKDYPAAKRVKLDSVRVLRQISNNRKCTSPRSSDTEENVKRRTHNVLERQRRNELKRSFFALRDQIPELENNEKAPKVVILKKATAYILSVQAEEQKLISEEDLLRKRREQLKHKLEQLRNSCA
- METHOD_NOTES: Inhibition of human c-Myc assessed as reduction in c-Myc/Max/Ebox DNA complex formation using pre-formed complex of c-Myc and biotinylated DNA containing single Ebox-sequence followed by compound addition and further addition of his6-tagged c-Max and incubated for 2 hrs by AlphaScreen assay
Consider the following compounds; for each one, report its IC50.

Asked: # IC50 lookup, item COCCNCCC(=O)Nc1sc2c(c1-c1nc3cc(-c4ccc(C(F)(F)F)nc4)ccc3s1)CCNC2
Given back: 1 to 10 µM

Asked: Follow-up item: CC(C)N1CCc2c(sc(NC(=O)CCNc3ccccc3)c2-c2nc3ccccc3s2)C1
Given back: > 10 µM

Asked: Follow-up item: COCCNCCC(=O)Nc1sc2c(c1-c1nc3ccc(-c4cnccc4OC)cc3s1)CCNC2
Given back: > 10 µM

Asked: Follow-up item: CC(C)N1CCc2c(sc(NC(=O)CCNc3cccc(O)c3)c2-c2nc3ccccc3s2)C1
Given back: 1 to 10 µM

Asked: Follow-up item: COCCNCCC(=O)Nc1sc2c(c1-c1nc3cc(-c4cncnc4)ccc3s1)CCNC2
Given back: < 0.3 µM

Asked: Follow-up item: CC(C)NCCC(=O)Nc1sc2c(c1-c1nc3cc(-c4cn[nH]c4)ccc3s1)CCNC2
Given back: < 0.3 µM

Asked: Follow-up item: COCCNCCC(=O)Nc1sc2c(c1-c1nc3ccc(-c4ccc(OC(C)C)nc4)cc3s1)CCNC2
Given back: > 10 µM

Asked: Follow-up item: COCCNCCC(=O)Nc1sc2c(c1-c1nc3ccc(-c4ccnc(N)c4)cc3s1)CCNC2
Given back: 0.3 to 1 µM

Asked: Follow-up item: CC(=O)Nc1sc2c(c1-c1nc3ccc(-c4cnn(C)c4)cc3s1)CCNC2
Given back: 0.3 to 1 µM

Asked: Follow-up item: COCCNCCC(=O)Nc1sc2c(c1-c1nc3cc(-c4ccc(C(=O)N(C)C)cc4F)ccc3s1)CCNC2
Given back: 0.3 to 1 µM

Asked: Follow-up item: CNC(=O)Nc1ccc(-c2ccc3sc(-c4c(NC(=O)CCNCCOC)sc5c4CCNC5)nc3c2)cc1
Given back: 1 to 10 µM

Asked: Follow-up item: O=C(CCNC1CC1)Nc1sc2c(c1-c1nc3ccccc3s1)CCNC2
Given back: 0.3 to 1 µM

Asked: Follow-up item: COCCNCCC(=O)Nc1sc2c(c1-c1nc3cc(-c4cc5ccccc5[nH]4)ccc3s1)CCNC2
Given back: > 10 µM

Asked: Follow-up item: COCCNCCC(=O)Nc1sc2c(c1-c1nc3ccc(-c4ccc(N5CCOCC5)nc4)cc3s1)CCNC2
Given back: > 10 µM

Asked: Follow-up item: CC(C)NCCC(=O)Nc1sc2c(c1-c1nc3cc(S(=O)(=O)c4ccccc4)ccc3s1)CCNC2
Given back: 0.3 to 1 µM

Asked: Follow-up item: COCCNCCC(=O)Nc1sc2c(c1-c1nc3c(-n4ccnc4C)cccc3s1)CCNC2
Given back: 0.3 to 1 µM

Asked: Follow-up item: CC(C)N1CCc2c(sc(NC(=O)CCN3CCc4ccccc4C3)c2-c2nc3ccccc3s2)C1
Given back: > 10 µM

Asked: Follow-up item: COCCNCCC(=O)Nc1sc2c(c1-c1nc3cc(-c4ccccc4O)ccc3s1)CCNC2
Given back: 1 to 10 µM

Asked: Follow-up item: COCCNCCC(=O)Nc1sc2c(c1-c1nc3cc(-c4cnc(N5CCOCC5)nc4)ccc3s1)CCNC2
Given back: 0.3 to 1 µM

Asked: Follow-up item: CC(C)N1CCc2c(sc(NC(=O)CCN3CCOCC3)c2-c2nc3ccccc3s2)C1
Given back: 0.3 to 1 µM

Asked: Follow-up item: COCCNCCC(=O)Nc1sc2c(c1-c1nc3cc(-c4cncc(OCCOC)c4)ccc3s1)CCNC2
Given back: 0.3 to 1 µM

Asked: Follow-up item: CNS(=O)(=O)c1cccc(-c2ccc3nc(-c4c(NC(=O)CCNCCOC)sc5c4CCNC5)sc3c2)c1
Given back: 0.3 to 1 µM

Asked: Follow-up item: CC(C)NCCC(=O)Nc1sc2c(c1-c1nc3cc(C#N)ccc3s1)CCNC2
Given back: < 0.3 µM

Asked: Follow-up item: CC(NCCC(=O)Nc1sc2c(c1-c1nc3ccccc3s1)CCN(C(C)C)C2)c1ccncc1 (configuration not stated)
Given back: 1 to 10 µM

Asked: Follow-up item: COCCNCCC(=O)Nc1sc2c(c1-c1nc3c(N4CC(O)C4)cccc3s1)CCNC2
Given back: < 0.3 µM

Asked: Follow-up item: CCc1cccc2sc(-c3c(NC(=O)CCNCCOC)sc4c3CCNC4)nc12
Given back: < 0.3 µM

Asked: Follow-up item: COCCNCCC(=O)Nc1sc2c(c1-c1nc3cc(-c4cncc(C(F)(F)F)c4)ccc3s1)CCNC2
Given back: 0.3 to 1 µM

Asked: Follow-up item: COCCNCCC(=O)Nc1sc2c(c1-c1nc3cc(-c4ccnc(OC)c4)ccc3s1)CCNC2
Given back: 0.3 to 1 µM

Asked: Follow-up item: COCCNCCC(=O)Nc1sc2c(c1-c1nc3ccc(-c4cccc5cccnc45)cc3s1)CCNC2
Given back: > 10 µM

Asked: Follow-up item: COCCNCCC(=O)Nc1sc2c(c1-c1nc3cc(-c4ccc5c(c4)NC(=O)C5)ccc3s1)CCNC2
Given back: > 10 µM

Asked: Follow-up item: CC(C)NCCC(=O)Nc1sc2c(c1-c1nc3cc(SC4CCCC4)ccc3s1)CCNC2
Given back: > 10 µM

Asked: Follow-up item: COCCNCCC(=O)Nc1sc2c(c1-c1nc3ccc(-c4cccc(NS(C)(=O)=O)c4)cc3s1)CCNC2
Given back: 0.3 to 1 µM

Asked: Follow-up item: COCCNCCC(=O)Nc1sc2c(c1-c1nc3ccc(-c4ccc5cnn(C)c5c4)cc3s1)CCNC2
Given back: > 10 µM

Asked: Follow-up item: COCCNCCC(=O)Nc1sc2c(c1-c1nc3cc(-c4ccc(O)nc4)ccc3s1)CCNC2
Given back: < 0.3 µM

Asked: Follow-up item: Cc1cn(-c2ccc3sc(-c4c(NC(=O)CCNC(C)C)sc5c4CCNC5)nc3c2)cn1
Given back: < 0.3 µM

Asked: Follow-up item: CC(C)NCCC(=O)Nc1sc2c(c1-c1nc3cc(O)ccc3s1)CCNC2
Given back: < 0.3 µM

Asked: Follow-up item: Cc1cc(C)c(CNCCC(=O)Nc2sc3c(c2-c2nc4ccccc4s2)CCN(C(C)C)C3)c(=O)[nH]1
Given back: 1 to 10 µM
